Taken from patent US20230331918A1.

# assay_remarks: Solubility of monomers and polymers in water, methanol, chloroform
# Assay type: physicochemical
# condition_details: methanol, organic solvent or mixture; monomer, room temperature; read-out: Monomer solubility in MeOH (clear solution)
experimental_endpoint: solubility

• C=Cc1ccc(CC(CC[N+](CCC)(CCC)CCC)S(=O)(=O)[O-])cc1 (stereo not shown) = ~500 mg/mL
